- Assay Explanation: Cytotoxicity against human SF539 cells at 10 uM after 48 hrs by SRB assay
- Type: functional
- Settings: SF-539, 48 h, read-out: GI
Assay Endpoint: inhibition of growth at 10 µM (%)
The reply should contain only the number, in %.

>>> df
                               input_smiles                 assay_endpoint  observed_result
0  COc1ccc(-c2nc(Nc3ccc(F)cc3)nc(Nc3ccc4c(c3)nc(C)n4Cc3ccccc3)n2)cc1  inhibition of growth at 10 µM             32.2

With those in mind, consider the next compound.
Challenge: Consider the compound Cc1nc2ccc(Nc3nc(NCCN4CCOCC4)nc(Nc4ccc(F)cc4)n3)cc2n1Cc1ccccc1 . State its measured inhibition of growth at 10 µM.
Response given: 70.2
